Every entry's value here was drawn from paper PMC11859928.

Entries and their measured inhibition at 10 µM follow.
Tested on: UACC-62
Assay: NCI one-dose assay
Format: cell-based
Settings: Homo sapiens, UACC-62, Melanoma, read-out: Cell growth inhibition %
assay metric: inhibition at 10 µM (%)

- substance smiles: "COc1ccc(/C(CSc2nnc(-c3c[nH]c4ccccc34)n2-c2ccccc2)=N/O)cc1"
  assay metric: "inhibition at 10 µM"
  unit of measurement: "%"
  experimental result: 68.6
- substance smiles: "O=C(CSc1nnc(-c2c[nH]c3ccccc23)n1-c1ccccc1)c1ccccc1"
  assay metric: "inhibition at 10 µM"
  unit of measurement: "%"
  experimental result: 26.6
- substance smiles: "O/N=C(\\CSc1nnc(-c2c[nH]c3ccccc23)n1-c1ccccc1)c1ccccc1"
  assay metric: "inhibition at 10 µM"
  unit of measurement: "%"
  experimental result: 59.2
- substance smiles: "C=CCn1c(SCC(=O)c2ccccc2)nnc1-c1c[nH]c2ccccc12"
  assay metric: "inhibition at 10 µM"
  unit of measurement: "%"
  experimental result: 18.5
- substance smiles: "C=CCn1c(SC/C(=N\\O)c2ccc(Cl)cc2)nnc1-c1c[nH]c2ccccc12"
  assay metric: "inhibition at 10 µM"
  unit of measurement: "%"
  experimental result: 35.8
- substance smiles: "C=CCn1c(SCC(=O)c2ccc(OC)cc2)nnc1-c1c[nH]c2ccccc12"
  assay metric: "inhibition at 10 µM"
  unit of measurement: "%"
  experimental result: 15.6
- substance smiles: "C=CCn1c(SCC(=O)c2ccc(C)cc2)nnc1-c1c[nH]c2ccccc12"
  assay metric: "inhibition at 10 µM"
  unit of measurement: "%"
  experimental result: 24.7
- substance smiles: "COc1ccc(C(=O)CSc2nnc(-c3c[nH]c4ccccc34)n2-c2ccccc2)cc1"
  assay metric: "inhibition at 10 µM"
  unit of measurement: "%"
  experimental result: 74.2
